# experiment: yeast display, Sf9 membrane polyspecificity reagent, FACS + sequencing; frameworks hold sequencing errors

{"columns": ["sequence code", "polyreactivity (PSR sort gate)"],
 "data": [
  ["QVQLVESGGGLVQAGGSLRLSCAASGITLSANAMGWYRQAPGKERELVATITWSGGSTYYADSVKGRFTISRDNAKNTVYLQMNSLKPEDTAVYYCNARSYDEYPYYSYNYWGQGTQVTVSS", "low polyreactivity"],
  ["QVQLVESGGGLVQAGGSLRLSCAASGSTFAGNAMGWYRQAPGKERELVAAIDSSTGSTYYSDSVKGRFTISRDNAKNTVYLQMNSLKPEDTSVYYCNKTSVLVKLDYWGQGTQVTVSS", "low polyreactivity"]
]}
